// data source = patent US10538516B2

target: GAβ-dependent amyloid fibril formation (Human Aβ1-40 + GM1-containing liposome) (Homo sapiens); construct: Human Aβ1-40 (cat. #4307-v, prepared by Peptide Institute); purchased Peptide Institute 4307-v; test: Thioflavin T (ThT) assay of GAβ-dependent amyloid fibril formation (Aβ1-40 with GM1-containing liposome); assay type: biochemical; conditions: inhibition rate against amyloid fibril formation, final concentration of the compound 25 μM; read-out: Inhibitory activity ABC evaluation
READOUT: inhibition at 25 µM

I would be grateful if you could share the reported inhibition at 25 µM for "Nc1[nH]cnc1-c1noc([C@H](CO)NC(=O)c2ccc(F)cc2)n1" .
40 to 80%

---

target: GAβ-dependent amyloid fibril formation (Human Aβ1-40 + GM1-containing liposome) (Homo sapiens, UniProt P05067); construct: Human Aβ1-40 (cat. #4307-v, prepared by Peptide Institute); purchased Peptide Institute 4307-v; assay: Thioflavin T (ThT) assay of GAβ-dependent amyloid fibril formation (Aβ1-40 with GM1-containing liposome); type: biochemical; settings: inhibition rate against amyloid fibril formation, final concentration of the compound 25 μM; read-out: Inhibitory activity ABC evaluation
Sequence (P05067 672-711 limits assumed): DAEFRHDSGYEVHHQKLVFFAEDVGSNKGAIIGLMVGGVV
READOUT: inhibition at 25 µM

MOLECULE | inhibition at 25 µM
O=C(NCCc1nc(-c2c[nH]c3ccccc23)no1)c1ccc(Cl)cc1 | 40 to 80%

Reported inhibition at 25 µM, molecule NC(Cc1ccc(O)cc1)c1nc(-c2ccc(OC(F)(F)F)cc2)no1 (stereo not drawn) : ____
40 to 80%

Please give the result for "O=C(Nc1ccc(Cl)cc1)N[C@@H](CO)c1nc(-c2ccc(OC(F)(F)F)cc2)no1" too.
< 40%

How about this molecule: O=C1CC(c2nc(-c3cccc(OC(F)F)c3)no2)CN1c1ccc(Cl)cc1 (stereo not drawn)
40 to 80%

Queued: O=C(NC(CO)c1nc(-c2ccc(C(F)(F)F)cc2)no1)c1ccc2[nH]ccc2c1 (stereo not drawn)
> 80%

Entry to check: "O=C(CCc1nc(-c2ccc(OC(F)(F)F)cc2)no1)N1CCCc2ccccc21"
40 to 80%

Same lookup for "O=C(N[C@@H](CO)c1nc(-c2ccc(C(F)(F)F)cc2)no1)c1ccc(Oc2ccccc2)cc1" , please.
> 80%

Subsequent entry: O=C1CC(c2nc(-c3ccc(OC(F)(F)F)cc3)no2)CN1c1ccc(F)cc1 (stereo not drawn)
40 to 80%

Another molecule: "O=C(N[C@@H](CO)c1nc(-c2ccc(C(F)F)cc2)no1)c1ccc(Cl)cc1"
> 80%

---

Molecular target: GAβ-dependent amyloid fibril formation (Human Aβ1-40 + GM1-containing liposome) (Homo sapiens)
Construct: Human Aβ1-40 (cat. #4307-v, prepared by Peptide Institute); purchased Peptide Institute 4307-v
Test: Thioflavin T (ThT) assay of GAβ-dependent amyloid fibril formation (Aβ1-40 with GM1-containing liposome)
Type: biochemical
Details: inhibition rate against amyloid fibril formation, final concentration of the compound 25 μM; read-out: Inhibitory activity ABC evaluation
Method: <3. Evaluation of the Compounds Based on the Inhibitory Activity Against Amyloid Fibril Formation in Thioflabin T (ThT) Assay> Inhibitory activity against GAβ-dependent amyloid fibril formation of the above compounds 1 to 133 and 142 to 267 were evaluated in ThT assay. (1) Preparation of Aβ Solution […] The fluorescence intensity of ThT indicates the degree of amyloid fibrils formation. […]
READOUT: inhibition at 25 µM

Check out these entries, answers already filled in.
COMPOUND | READOUT_VALUE
O=C(N[C@@H](CO)c1noc(-c2ccc(OC(F)(F)F)cc2)n1)c1ccccc1 | 40 to 80%
O=C(N[C@@H](CO)c1nc(-c2ccc(C(F)(F)F)c(F)c2)no1)c1ccc(F)cc1 | 40 to 80%
N#Cc1cccc(-c2nnc([C@@H](CO)NC(=O)c3ccc(Cl)cc3)o2)c1 | < 40%
O=C(N[C@@H](CO)c1nc(-c2cc(F)cc(F)c2)no1)c1ccc(F)cc1 | 40 to 80%
O=C(NC(CO)(CO)c1nc(-c2ccc(OC(F)(F)F)cc2)no1)c1ccc(Cl)cc1 | 40 to 80%
COc1ccc2[nH]cc(-c3noc([C@H](CO)NC(=O)c4ccc(F)cc4)n3)c2c1 | 40 to 80%

Now for the compound whose inhibition at 25 µM we want.
Sample "O=C(N[C@@H](CO)c1nc(-c2cnc3ccccc3c2)no1)c1ccc(F)cc1" — what was its inhibition at 25 µM?
< 40%

---

molecular target: GAβ-dependent amyloid fibril formation (Human Aβ1-40 + GM1-containing liposome) (Homo sapiens); construct: Human Aβ1-40 (cat. #4307-v, prepared by Peptide Institute); purchased Peptide Institute 4307-v; experiment: Thioflavin T (ThT) assay of GAβ-dependent amyloid fibril formation (Aβ1-40 with GM1-containing liposome); format: biochemical; conditions: inhibition rate against amyloid fibril formation, final concentration of the compound 25 μM; read-out: Inhibitory activity ABC evaluation
READOUT: inhibition at 25 µM

Field: example entries. Status: answers known.
MOLECULE | READOUT | READOUT_VALUE
O=C1CC(c2nc(-c3ccc(Cl)cc3)no2)CN1c1ccc(Cl)cc1 (stereo not shown) | inhibition at 25 µM | < 40%
O=C1CC(c2nc(-c3ccc(OC(F)(F)F)cc3)no2)CN1c1cncc(Cl)c1 (stereo not shown) | inhibition at 25 µM | < 40%
COc1ccc(-c2noc(C3CC(=O)N(c4ccc(Cl)cc4)C3)n2)cc1F (stereo not shown) | inhibition at 25 µM | 40 to 80%
COc1cccc2c(CC(=O)NCCc3nc(-c4c[nH]c5ccccc45)no3)c[nH]c12 | inhibition at 25 µM | < 40%
O=C(N[C@@H](CO)c1nc(-c2ccc(OC(F)(F)F)cc2)no1)c1ccc(O)c(Cl)c1 | inhibition at 25 µM | < 40%

// next item, inhibition at 25 µM requested
Consider the molecule shown here: O=C1CC(c2nnn(-c3ccc(OC(F)(F)F)cc3)n2)CN1c1ccc(Cl)cc1 (stereo not shown) What is its recorded inhibition at 25 µM?
< 40%

---

Recorded inhibition at 25 µM values for a group of compounds are listed next.
target: GAβ-dependent amyloid fibril formation (Human Aβ1-40 + GM1-containing liposome) (Homo sapiens, UniProt P05067); construct: Human Aβ1-40 (cat. #4307-v, prepared by Peptide Institute); purchased Peptide Institute 4307-v; assay: Thioflavin T (ThT) assay of GAβ-dependent amyloid fibril formation (Aβ1-40 with GM1-containing liposome); assay type: biochemical; conditions: inhibition rate against amyloid fibril formation, final concentration of the compound 25 μM; read-out: Inhibitory activity ABC evaluation

Some compounds with recorded inhibition at 25 µM:
COMPOUND | READOUT_VALUE
O=C1CC(c2nnc(-c3ccc(OC(F)(F)F)cc3)o2)CN1c1ccc(Cl)cc1 (stereo not drawn) [Compound 103] | 40 to 80%
O=C1CC(CO)(c2nc(-c3ccc4c(c3)OC(F)(F)O4)no2)CN1c1ccc(Cl)cc1 (stereo not drawn) [Compound 73] | > 80%

From here, focus on the item given below.
Item under review: O=C(NC1(c2nc(-c3ccc(OC(F)(F)F)cc3)no2)CCCC1)c1ccc(Cl)nc1 [Compound 31] . Reported inhibition at 25 µM?
< 40%

---

Listing of entries alongside the reported inhibition at 25 µM.
target: GAβ-dependent amyloid fibril formation (Human Aβ1-40 + GM1-containing liposome) (Homo sapiens, UniProt P05067); construct: Human Aβ1-40 (cat. #4307-v, prepared by Peptide Institute); purchased Peptide Institute 4307-v; experiment: Thioflavin T (ThT) assay of GAβ-dependent amyloid fibril formation (Aβ1-40 with GM1-containing liposome); type: biochemical; settings: inhibition rate against amyloid fibril formation, final concentration of the compound 25 μM; read-out: Inhibitory activity ABC evaluation

Answered cases to consult:
COMPOUND | inhibition at 25 µM
O=C(N[C@@H](CO)c1nc(-c2ccc(O)c(F)c2)no1)c1ccc(Cl)cc1 [Compound 99] | 40 to 80%
O=C(/C=C/c1cc(Cl)cc(Cl)c1)NC(CO)c1nc(-c2ccc(C(F)(F)F)cc2)no1 (stereo not shown) [Compound 191] | 40 to 80%
O=C(N[C@@H](CO)c1nc(-c2ccc(OCCN3CCOCC3)cc2)no1)c1ccccc1 [Compound 158] | 40 to 80%
O=C(N[C@@H](CO)c1nc(-c2cccc(C(F)(F)F)c2)no1)c1ccccc1 [Compound 177] | > 80%

GET /values?readout=inhibition at 25 µM&item= C=C(NC(=O)c1ccc(Cl)cc1)c1nnc(-c2ccc(OC(F)(F)F)cc2)o1 [Compound 115]
< 40%

Okay, and COc1ccc(-c2noc(CCC(=O)Nc3cccc(Cl)c3)n2)cc1 [Compound 8] ?
< 40%

Now try O=C(N[C@@H](CO)c1nc(-c2ccc(OC(F)(F)F)cc2)no1)c1cccc(Cl)c1 [Compound 63] .
> 80%
